Data provenance: ChEMBL document CHEMBL4680208

Tested on: Candida albicans
PROTOCOL_TEXT: Antifungal activity against Candida albicans 90028 assessed as fungal growth inhibition at 0.0625 ug/ml measured after 48 hrs by microdilution method relative to control
Format: functional
CONDITION_SUMMARY: read-out: GI
MEASUREMENT_TYPE: inhibition of growth at 0.0625 µg/mL (%)

> print(dat)
                              line.notation  measured.value
1  NNc1ccc(S(=O)(=O)C(F)(F)Cl)cc1[N+](=O)[O-]            95.8
2  O=[N+]([O-])c1cc(S(=O)(=O)C(F)(F)I)ccc1N/N=C\c1ccc(C2=C3C=CC=[N+]3[B-](F)(F)n3cccc32)cc1            94.3
3  O=[N+]([O-])c1cc(S(=O)(=O)C(Cl)(Cl)Br)ccc1N/N=C\c1ccc(C2=C3C=CC=[N+]3[B-](F)(F)n3cccc32)cc1            99.8
